Exercise: for every item that follows, state its recorded GI50.
Test system: SN12C
Assay: NCI tumour cell line growth inhibition, 48 h
Calls of active or inactive are those of the source. Cut-off read from the data, not from the text of the source: active = GI50 up to about 1.1 µM and inactive = higher.

Examples from the recorded data:
In [3]: df
Out[3]:
                                   molecule  experimental_readout               result
0  COc1ccc(OC2OC(COC(c3ccccc3)(c3ccc(OC)cc3)c3ccc(OC)cc3)C(O)C(O)C2O)cc1 (stereo not drawn)                  GI50   2.51 µM (inactive)
1  CC1(c2ccccc2)N=c2[nH]cnc2=C(C(N)=O)N1 (stereo not drawn)                  GI50  > 100 µM (inactive)
2  O=C1C=C(N2CCN(c3ncccn3)CC2)C(=O)c2c(O)ccc(O)c21                  GI50  > 100 µM (inactive)
3  CC(OC(C)(C)C)[C@H](NC(=O)OCC(Cl)(Cl)Cl)C(=O)O (stereo partly drawn)                  GI50  > 100 µM (inactive)
4     CN(C)C(=O)C1CCN(Cc2c[nH]c3ccccc23)CC1                  GI50  > 100 µM (inactive)
5               Nc1nc(NCCO)c(N=O)c(=O)[nH]1                  GI50  > 100 µM (inactive)

Dear colleague, could you send me GI50 for each of the items below? Thanks.
1. C[C@@]12CCC3C1C=C1C(=O)c4cc(O)ccc4C(=O)[C@]1(O2)[C@@]3(C)C=O
2. CC1OC2(CC(OCc3ccccc3)C1OCc1ccccc1)OCCO2 (stereo not drawn)
3. OCC(CO)C1c2cccc3ccc4cccc1c4c23
4. CC(NS(C)(=O)=O)c1ccccc1 (stereo not drawn)
5. COc1ccc(C(=O)CC2=Nc3nnc(CCCCCCCc4nnc5n4C(=O)C(CC(=O)c4ccc(OC)cc4)=N5)n3C2=O)cc1
6. CC1=NNC(=O)C1C1(C(=O)O)CC(c2c[nH]c3ccccc23)=NC(=S)N1 (stereo not drawn)

Result:
1. 2.02 µM (inactive)
2. 21.4 µM (inactive)
3. > 100 µM (inactive)
4. > 100 µM (inactive)
5. > 100 µM (inactive)
6. 40 µM (inactive)

Dear colleague, could you send me GI50 for each of the items below? Thanks.
1. O=C(NCCNCCNC(=O)C(F)(F)F)C(F)(F)F
2. c1cc2c(cc1C(N1CCNCC1)N1CCNCC1)OCO2
3. Cc1ccc2ccc(O)cc2c1

Result:
> 100 µM (inactive)
> 100 µM (inactive)
94.6 µM (inactive)

----------
System: M14
Assay: NCI tumour cell line growth inhibition, 48 h
Active and inactive are the calls of the source. Cut-off read from the data, not from the text of the source: active = GI50 up to about 1.1 µM and inactive = higher.
EXPERIMENTAL READOUT: GI50

Examples from the recorded data:
>>> print(df.to_string())
                                   compound               result
0  COc1cc(OCc2ccc3nc(OC)c(OC)nc3c2)cc(OC)c1OC   > 10 µM (inactive)
1  COc1ccc(CCNC(=O)[C@H]2CCCC[C@@H]2CCO)cc1OC  > 100 µM (inactive)

Dear colleague, could you send me GI50 for each of the items below? Thanks.
1. O=[N+]([O-])c1ccc(C2Nn3c(nnc3-c3cccc([N+](=O)[O-])c3)S2)cc1 (stereo not given)
2. CCOC(=O)C(Cc1ccccc1)NC(=O)c1ccc(/N=N/N(C)C)cc1 (stereo not given)

Result:
["> 100 µM (inactive)", "> 100 µM (inactive)"]

Dear colleague, could you send me GI50 for each of the items below? Thanks.
1. CSc1cc(Cl)c(C)cc1S(=O)(=O)NC(=O)NNc1ccc(F)c(Cl)c1
2. COc1ccc2c(c1)C(O)(C(F)(F)F)c1cc(C(=O)C(F)(F)F)c3ccccc3c1N2 (stereo not given)
3. COc1cccc2c1C(=O)c1c(O)c3c(c(O)c1C2=O)C[C@@](O)(C(C)=O)CC3OC1CC(OC2CC(N)C(O)C(C)O2)C(O)C(C)O1 (stereo not given in full)
4. O=[N+]([O-])c1ccc(N/N=C/c2ccc(OCCCCCCCCCCCO)cc2)c([N+](=O)[O-])c1
5. CC(=O)O[C@]12CCCCCC1C1(O)C(O)CCCC[C@H]12 (stereo not given in full)
6. CCOC(=O)C12CCCC1(O)N(NC(=O)c1ccccc1)C(C)=C2C(=O)OC (stereo not given)
7. COc1cc2c(oc(=O)c3c4oc([Si](C)(C)C)cc4cc(OC)c23)c2cccc(O)c12

Result:
1. > 100 µM (inactive)
2. 5.33 µM (inactive)
3. 61.7 µM (inactive)
4. 1.39 µM (inactive)
5. > 100 µM (inactive)
6. > 100 µM (inactive)
7. > 100 µM (inactive)

Dear colleague, could you send me GI50 for each of the items below? Thanks.
1. COc1ccc(S(=O)(=O)Nc2ccc(-c3csc(N4C(=O)/C(=C/C=C\c5ccccc5)N=C4c4ccccc4)n3)cc2)cc1Cl
2. OCCN(C1=NCCN1)/[N+](=C/c1ccc(Cl)cc1)[CH-]c1ccc(Cl)cc1
3. CN(C)c1ccc(/C=N/NC(=O)c2cnc3ccccc3c2)cc1

Result:
1. 27.6 µM (inactive)
2. 83.9 µM (inactive)
3. > 100 µM (inactive)

Dear colleague, could you send me GI50 for each of the items below? Thanks.
1. CC(C)(C)OC(=O)N[C@H]1CC(=O)c2ccccc2N(CC(=O)O)C1=O
2. Cn1c2c(c3ccccc31)CCN(CCN1CCN(c3ccccc3)CC1)C2=O
3. O=[N+]([O-])c1ccc(N2CCC(CCCC3CCN(c4ccc([N+](=O)[O-])cc4[N+](=O)[O-])CC3)CC2)c([N+](=O)[O-])c1
4. Cc1ccc(/C=N/Nc2ccc3ccccc3n2)s1
5. CCCN1CN(c2ccccc2)C2(CCN(CCCC(=O)c3ccc(F)cc3)CC2)C1=O
6. Clc1nc(NCCc2ccccc2)c2ncn(-c3ccccc3)c2n1
7. O=C1NC(=O)C(C(=O)C(=O)Nc2ccc(Br)cc2)C(=O)N1

Result:
1: > 100 µM (inactive); 2: > 100 µM (inactive); 3: 13.2 µM (inactive); 4: 16.9 µM (inactive); 5: 12.4 µM (inactive); 6: 21.5 µM (inactive); 7: > 100 µM (inactive)

Dear colleague, could you send me GI50 for each of the items below? Thanks.
1. CC1=CC(C)(C)[C@H]2O[C@@]3(O)C[C@]4(C)[C@H]5C[C@@](C(C)C)(O[C@H]4c4ccoc4)O[C@H]4[C@]5(C3)O[C@@]1(O)[C@]24O
2. CSc1cnc2ccccc2c1Sc1cn(C)c2ccccc2c1=O

Result:
1: > 100 µM (inactive); 2: > 100 µM (inactive)

Dear colleague, could you send me GI50 for each of the items below? Thanks.
1. C=CCN(c1cc(OCc2ccccc2)c(NC(C)=O)cc1[N+](=O)[O-])S(C)(=O)=O
2. C=CCN(CC=C)Cn1c(=S)sc2ccccc21

Result:
["38.3 µM (inactive)", "> 100 µM (inactive)"]
